test: small molecules captured by biotinylated probe aFGF2 – biochemical, small-molecule microarray, fluorescence 635/667, stem cell growth factor project, primary screen (AID 1067); conditions: higher = more signal;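 also: measures binding of biotinylated aFGF2 protein to printed compounds on slides; z-score merges feature fluorescence and signal-to-noise across triplicate slides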
Rule: composite z-score under -0.09 gives n, otherwise y.

{"compound": "COC(=O)C(CC#Cc1ccc2c(c1)[C@]1(C(=O)N2)[C@H](C(=O)N2CCCCCCC2)[C@H]2C(=O)O[C@H](c3ccccc3)[C@H](c3ccccc3)N2[C@@H]1c1ccccc1OCCO)C(=O)OC", "category": "y"}
{"compound": "CCN(CC)c1ccc(N2CC=CC34O[C@@H]5C=CCCOC(=O)C5[C@H]3C(=O)N(CCCO)[C@@H]4C2=O)cc1 (stereo partly drawn)", "category": "n"}
{"compound": "C=C(COC)/C(=C/C[C@H](OC(C)=O)c1ccccc1OCCO)c1cnc2ccccc2c1", "category": "y"}

Q: Does composite z-score meet or surpass -0.09 for C=CCC(OC(C)=O)[C@@H]1[C@@H](N(Cc2ccc(-c3cccc(C(F)(F)F)c3)o2)C(=O)c2ccc(C)cc2)c2cc(OCCCO)ccc2N1C(=O)c1ccc2ccccc2n1 (stereo partly drawn) ?
Result: y

Q: Does composite z-score meet or surpass -0.09 for "C=C[C@H](C)[C@H](OC(=O)Nc1ccc(OC)cc1)c1ccc(O)c2ccccc12" ?
Result: n

Q: Does composite z-score meet or surpass -0.09 for O=C1OCCC=C[C@H]2OC34C=CCN(c5ccc6ccccc6c5)C(=O)[C@H]3N(CCCCCCO)C(=O)[C@@H]4C12 (stereo partly drawn) ?
Result: n

Q: Does composite z-score meet or surpass -0.09 for "O=c1cccc(-c2cccc3ccccc23)o1" ?
Result: y

* * *

biological target: Focal adhesion kinase 1 (Homo sapiens) (UniProt Q05397); test: PTK2 protein binding on printed compound slides – biochemical, small-molecule microarray, 635/667 nm fluorescence, BSA, DTT, primary screen (AID 1130); conditions: 635 nm fluorescence, higher = more signal;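 also: composite of spot emission at 667 nm and signal to noise over triplicate slides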
Sequence (Q05397 whole entry, looked up): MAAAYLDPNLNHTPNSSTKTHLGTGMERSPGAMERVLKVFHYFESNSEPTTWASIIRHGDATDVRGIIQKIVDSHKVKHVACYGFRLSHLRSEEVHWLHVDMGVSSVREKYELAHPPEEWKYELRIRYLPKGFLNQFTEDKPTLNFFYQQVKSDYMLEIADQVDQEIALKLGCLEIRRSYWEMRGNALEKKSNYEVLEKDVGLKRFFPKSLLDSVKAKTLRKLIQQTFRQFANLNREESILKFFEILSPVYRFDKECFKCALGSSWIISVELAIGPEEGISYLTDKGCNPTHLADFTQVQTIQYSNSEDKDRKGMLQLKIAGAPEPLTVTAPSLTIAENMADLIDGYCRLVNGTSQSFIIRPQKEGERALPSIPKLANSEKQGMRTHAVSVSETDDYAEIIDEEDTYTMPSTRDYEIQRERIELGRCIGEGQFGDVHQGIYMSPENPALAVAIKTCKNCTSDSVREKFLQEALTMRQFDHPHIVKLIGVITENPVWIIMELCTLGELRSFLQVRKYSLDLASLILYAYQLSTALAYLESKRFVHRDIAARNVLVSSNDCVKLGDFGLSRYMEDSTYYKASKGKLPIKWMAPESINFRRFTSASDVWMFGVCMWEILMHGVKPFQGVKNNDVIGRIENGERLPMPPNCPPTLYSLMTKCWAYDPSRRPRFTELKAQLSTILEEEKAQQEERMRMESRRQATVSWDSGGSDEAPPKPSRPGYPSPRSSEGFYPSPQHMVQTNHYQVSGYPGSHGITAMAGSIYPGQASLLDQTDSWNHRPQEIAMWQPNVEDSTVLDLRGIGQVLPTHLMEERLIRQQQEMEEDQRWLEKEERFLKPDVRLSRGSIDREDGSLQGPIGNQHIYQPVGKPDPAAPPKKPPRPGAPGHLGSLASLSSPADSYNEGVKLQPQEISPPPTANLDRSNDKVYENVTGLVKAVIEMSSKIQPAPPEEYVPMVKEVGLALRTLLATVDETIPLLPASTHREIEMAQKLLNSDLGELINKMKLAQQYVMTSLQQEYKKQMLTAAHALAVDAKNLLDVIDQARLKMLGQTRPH
propertyMeasured: composite z-score

{"compound": "O=C1O[C@H](c2ccccc2)[C@H](c2ccccc2)N2[C@H]1[C@@H](C(=O)N1CCCCCCC1)[C@]1(C(=O)Nc3ccc(C#CC4=CCCCC4)cc31)[C@H]2c1ccc(O)cc1", "targetOrSystem": "Focal adhesion kinase 1 (Homo sapiens) (UniProt Q05397)", "composite z-score": 5.6}
{"compound": "CC1CC/C=C\\[C@H]2OC34C=CCN(CCN5CCOCC5)C(=O)[C@H]3N(CCCCCO)C(=O)[C@@H]4C2C(=O)O1 (some centres not stated)", "targetOrSystem": "Focal adhesion kinase 1 (Homo sapiens) (UniProt Q05397)", "composite z-score": -0.197}
{"compound": "O=C1OCCC/C=C\\[C@H]2OC34C=CCN(Cn5nnc6ccccc65)C(=O)[C@H]3N(CCCO)C(=O)[C@@H]4C12 (some centres not stated)", "targetOrSystem": "Focal adhesion kinase 1 (Homo sapiens) (UniProt Q05397)", "composite z-score": -0.0245}
{"compound": "C=C[C@H](C)[C@H](OC(=O)Nc1ccc(OC)cc1)c1ccc(O)c2ccccc12", "targetOrSystem": "Focal adhesion kinase 1 (Homo sapiens) (UniProt Q05397)", "composite z-score": -0.208}
{"compound": "CO[C@H]1O[C@H](CO)[C@@H](OC(=O)Nc2ccc3c(c2)OCO3)[C@H](OC(=O)Nc2ccc3c(c2)OCO3)[C@H]1OC(=O)Nc1ccc2c(c1)OCO2", "targetOrSystem": "Focal adhesion kinase 1 (Homo sapiens) (UniProt Q05397)", "composite z-score": 0.0847}
{"compound": "COc1ccc([Si](C)(C)[C@@H]2[C@@H](CCn3cc([C@H](O)c4ccccc4)nn3)O[C@]3(C(=O)N(C)c4ccccc43)[C@H]2C)cc1", "targetOrSystem": "Focal adhesion kinase 1 (Homo sapiens) (UniProt Q05397)", "composite z-score": 0.227}

We now examine a further compound.
Param item: COc1cc(NN2C(C(O)c3ccccc3)C=CC3C(=O)N(c4ccccc4)C(=O)C32)cc(OC)c1OC (configuration not stated) ; param system: Focal adhesion kinase 1 (Homo sapiens) (UniProt Q05397); output composite z-score: 0.707
